From: the supplement of paper PMC9492666

Measured relative cell viability values are reported for all entries that follow.
Tested on: MDA-MB-231
Test name: relative cell viability, compound alone, vs DMSO (fraction of DMSO control); higher = less growth inhibition
Experimental setup: 72 h
Reply with the value as a number alone.

Some solved entries appear below for comparison.
Molecule: CC(C)CCC[C@@H](C)[C@H]1CC[C@H]2[C@@H]3CCC4=CC(=NO)CC[C@]4(C)[C@H]3CC[C@]12C
Target: MDA-MB-231
relative cell viability: 0.789
//
Molecule: Nc1ccc(O)c(C(=O)O)c1
Target: MDA-MB-231
relative cell viability: 0.914
//
Molecule: CC(C)(O)c1ccccc1CC[C@@H](SCC1(CC(=O)O)CC1)c1cccc(/C=C/c2ccc3ccc(Cl)cc3n2)c1
Target: MDA-MB-231;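 also: viability read out with the CCK-8 kit in 96-well plates, screening a set of 303 compounds acting on lipid metabolism targets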
relative cell viability: 0.857

--- query ---
Value lookup for relative cell viability; key = `CC[C@@H]1/C=C(\C)C[C@H](C)C[C@H](OC)[C@H]2O[C@@](O)(C(=O)C(=O)N3CCCC[C@H]3C(=O)O[C@H](/C(C)=C/[C@@H]3CC[C@@H](O)[C@H](OC)C3)[C@H](C)[C@@H](O)CC1=O)[C@H](C)C[C@@H]2OC`
0.236
